Read-out: Epidermal growth factor receptor (EGFR), EGFR (gene 1956)
protocol-text: BSK_hDFCGF_EGFR: BioMAP Diversity Plus: hDFCGF Assay for Epidermal growth factor receptor (EGFR) Biomarker Activity (AID 2283057)
settings: primary human foreskin fibroblasts; actives raise or lower the signal
Activity calls are given as the source filed them. Rule for the calls: active = hit-call score of the fitted dose curve at least 0.9, where 1 is the maximum; inactive = score below 0.9.
Classes to choose from: active, inactive

# example entries with known answers
O=C(NS(=O)(=O)/C=C/c1cccs1)c1ccc(F)cc1Br = inactive
O=C1CCCCC1 = inactive
Cn1cnc2c1c(=O)[nH]c(=O)n2C = inactive
CC(C)(O)c1ccc(CNC(=O)c2cccnc2Oc2ccc(F)cc2)cc1 = inactive
CCCCCCCCCC[N+](C)(C)[O-] = inactive
CCCCCCC(C=O)=Cc1ccccc1 = inactive

What did this assay record as the result for `O=[Si]=O` ? inactive

Would you kindly repeat that for `Nc1nc(Cl)nc2c1ncn2[C@H]1C[C@H](O)[C@@H](CO)O1` ? inactive

Another compound: `CN(C)CCCN(C)CCCN(C)C` inactive

Please give the result for `O=C(Oc1ccccc1)c1cccc(C(=O)Oc2ccccc2)c1` too. inactive

Another compound: `CSc1ccc(Oc2ccc(S(N)(=O)=O)cc2CN(C)C)cc1C` inactive

Then what about the compound `CC(=O)S[C@H](C(=O)N[C@H]1Cc2ccccc2[C@H]2CCC[C@@H](C(=O)O)N2C1=O)C(C)C` ? inactive

Next record, please: `CCCC(=O)O` inactive

And the next one, CC(=O)OC1CC(C)OC(C)O1 (stereo not drawn) ? inactive

Note, next up: C#CC(O)C(CC)CCCC (stereo not drawn) inactive

Same question for `O=C(O)CC(O)(CC(=O)O)C(=O)O` please. inactive

// repeat for `C=CCCCCCCCCCCCC` and report inactive

Follow-up entry: `CC(C)c1cccc(C(C)C)c1` inactive

And the next one, `O=C(N[C@@H](c1ccccc1)[C@@H]1CCCCN1)c1cccc(C(F)(F)F)c1Cl` ? inactive

Next entry: CC(=O)CC(c1ccccc1)c1c(O)c2ccccc2oc1=O (stereo not drawn) inactive

Same read-out for `CCCCCCCCCCCCCCOS(=O)(=O)O` ? active

---

protocol-text: ATG_DR4_LXR_CIS: Attagene CIS-FACTORIAL HepG2 Assay for human Liver X Receptor (LXR), DR4 submotif (AID 2282929)
settings: HepG2 Attagene DR4 cis-reporter, mRNA transcription; actives raise or lower the signal
Activity calls are given as the source filed them. Rule for the calls: active = hit-call score of the fitted dose curve at least 0.9, where 1 is the maximum; inactive = score below 0.9.
The categories you may choose from are yes = active, no = inactive

Worked examples follow.
CCCCCCC(CCCCCCCCCCC(=O)OCC(COC(C)=O)OC(C)=O)OC(C)=O (stereo not given) = no
CO[C@@H]1COCC[C@@H]1N[C@@H]1CC[C@@](C(=O)N2CCc3ncc(C(F)(F)F)cc3C2)(C(C)C)C1 = no
N[C@@H](Cc1c[nH]c2ccccc12)C(=O)O = no
CCCCc1nc2cccnc2n1Cc1ccc(-c2ccccc2-c2nnn[nH]2)cc1 = no

// param item: `Cc1cn([C@H]2C=C[C@@H](CO)O2)c(=O)[nH]c1=O` ; yields the recorded call no

Now give it for `COc1ccc(C(=O)Nc2nc3ccccc3c(NCc3ccccc3)c2C#N)cc1` too. no

Further, for `C/C=C/C=C/C(=O)O` ? no

Repeat for the following compound: `CC1=C(C)S(=O)(=O)CCS1(=O)=O` no

---

Read-out: CD38, CD38 (gene 952)
protocol-text: BSK_SAg_CD38: BioMAP Diversity Plus: SAg Assay for CD38 Biomarker Activity (AID 2283087)
settings: primary human HUVEC with PBMC; actives raise or lower the signal
Calls of active or inactive are those of the source. The calls were made as follows: active = hit-call score of the fitted dose curve at least 0.9, where 1 is the maximum; inactive = score below 0.9.
Response enum: t for active, f for inactive

C=CCc1ccc(OC)c(OC)c1 = f
CCCC[C@H]1CN(CC2CCOCC2)C(=O)OC12CCN(C1(C)CCN(C(=O)c3c(C)ncnc3C)CC1)CC2 = f
CC(=O)O = f
O=C1OC(c2ccc(O)cc2)(c2ccc(O)cc2)c2ccccc21 = t
CC(=O)CC(c1ccccc1)c1c(O)c2ccccc2oc1=O (stereo not drawn) = f

With those in mind, consider the next molecule.
In this assay, the call recorded for `O=[Si]=O` was what? f

---

measurement-target: sheep Cyclooxygenase-2 (Cox2), PTGS2 (gene 443460) (UniProt P79208)
Sequence (P79208 whole entry, looked up): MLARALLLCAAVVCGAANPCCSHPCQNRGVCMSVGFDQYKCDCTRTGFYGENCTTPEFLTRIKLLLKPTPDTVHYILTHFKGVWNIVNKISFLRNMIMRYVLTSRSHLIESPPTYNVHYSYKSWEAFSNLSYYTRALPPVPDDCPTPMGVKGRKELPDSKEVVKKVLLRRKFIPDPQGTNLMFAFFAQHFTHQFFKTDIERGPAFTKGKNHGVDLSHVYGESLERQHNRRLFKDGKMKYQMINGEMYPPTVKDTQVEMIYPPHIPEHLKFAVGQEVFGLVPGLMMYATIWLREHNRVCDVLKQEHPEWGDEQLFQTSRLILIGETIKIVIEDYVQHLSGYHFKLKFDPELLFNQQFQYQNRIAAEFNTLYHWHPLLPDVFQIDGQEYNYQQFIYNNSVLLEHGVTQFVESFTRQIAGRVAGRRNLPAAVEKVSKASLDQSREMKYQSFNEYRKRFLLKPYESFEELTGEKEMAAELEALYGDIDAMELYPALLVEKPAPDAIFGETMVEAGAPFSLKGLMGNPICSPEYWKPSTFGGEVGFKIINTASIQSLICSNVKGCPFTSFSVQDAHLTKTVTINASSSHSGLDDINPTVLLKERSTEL
protocol-text: NVS_ENZ_oCOX2: NovaScreen (NVS) Enzymatic Assay for sheep Cyclooxygenase-2 (Cox2) (AID 2283231)
Records with an inconclusive call do not appear. Calls of active or inactive are those of the source. The calls were made as follows: active = hit-call score of the fitted dose curve at least 0.9, where 1 is the maximum; inconclusive = response in the unintended direction; inactive = score below 0.9.
Field 'call' accepts Yes for active, No for inactive

Please review the following examples before continuing.
CN(C)C(=O)NC1(c2ccccc2)CCN(CCC[C@]2(c3ccc(Cl)c(Cl)c3)CCCN(C(=O)c3ccccc3)C2)CC1 = Yes
COc1ccc(C(=O)Nc2nc3ccccc3c(NCc3ccccc3)c2C#N)cc1 = Yes
S=c1[nH]c2ccccc2s1 = Yes

Consider now this further compound.
Record lookup: outcome of this test for `Oc1ccccc1O` ? No

---

Read-out: Cyclin D1 (CCND1), CCND1 (gene 595)
protocol-text: LTEA_HepaRG_CCND1: Life Technologies and Expression Analysis (LTEA) Assay for Cyclin D1 (CCND1) using HepaRG (AID 2283451)
settings: mRNA level, 48 h; actives raise or lower the signal
Active and inactive are the calls of the source. Rule for the calls: active = hit-call score of the fitted dose curve at least 0.9, where 1 is the maximum; inactive = score below 0.9.
Select the matching outcome among active, inactive

Example entries and their recorded answers appear below.
CC(C)NCC(O)c1ccc(O)c(O)c1 (centres undefined) = active
O=C(O)c1cccnc1 = inactive
CO[C@@H]1COCC[C@@H]1N[C@@H]1CC[C@@](C(=O)N2CCc3ncc(C(F)(F)F)cc3C2)(C(C)C)C1 = inactive
CCCCCCCCCC[N+](C)(C)[O-] = inactive
O=[Si]=O = inactive

Which outcome was assigned to `COC(=O)CCC(=O)OC` in this test? inactive

Let us now turn to CCCCC(CC)CO (centres undefined) inactive

Cool, now `NC=O` inactive

And then Cc1c(C)c2c(c(C)c1O)CCC(C)(COc1ccc(CC3SC(=O)NC3=O)cc1)O2 (centres undefined) , what is it? inactive

Same question, `Cc1cn([C@H]2C=C[C@@H](CO)O2)c(=O)[nH]c1=O` this time inactive

Input `C=CCCCCCCCCCCCC` inactive

---

protocol-text: CCTE_Deisenroth_AIME_384WELL_CTox_Active: Cytotoxicity Assessment (CTOX) in CCTE's 384-well Estrogen Receptor Transactivation Assay with AIME metabolic competence (metabolism positive), Deisenroth Lab (AID 2284037);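 note: chemicals first conditioned 2 h by alginate-bound induced rat liver S9 before cells; activity means signal loss indicating cell death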
Records with an inconclusive call do not appear. Active and inactive are the calls of the source. The calls were made as follows: active = hit-call score of the fitted dose curve at least 0.9, where 1 is the maximum; inconclusive = response in the unintended direction; inactive = score below 0.9.
# output must be one of active, inactive

Check out these entries, answers already filled in.
CC(C)OC(=O)C(C)(C)Oc1ccc(C(=O)c2ccc(Cl)cc2)cc1 = inactive
CCCCCCCC(=O)OC = inactive

What call does the record list for `Nc1nc(=S)c2[nH]cnc2[nH]1` ? inactive

Field entry: `CC(=O)OCC(COC(C)=O)OC(C)=O` inactive

Further, for `C/C=C/c1ccc(OC)cc1` ? inactive

Same for CCCCC(CC)CO (stereo not drawn) inactive

Another compound to look at: `O=C(O)CN(CC(=O)O)CC(=O)O` inactive

Next entry: `COC(=O)CCCC(=O)OC` inactive

Next entry: `CCOCCOCCO` inactive

What would you report for `Oc1ccccc1O` ? active

Proceed to `C/C=C/C=C/C(=O)O` inactive

Entry `NC=O` please inactive

Also `O=[Si]=O` , if possible. inactive

Could you do the same for `CN(C)CCCN(C)CCCN(C)C` , please? inactive

Entry `O=C(O)CC(O)(CC(=O)O)C(=O)O` please inactive

Item: `CCCCCCCCCCCCCCCCO` inactive

Param item: `CC(=O)O` inactive

Do the same for `O=C1CCCCC1` please inactive

---

Read-out: Matrix Metallopeptidase 1 (MMP1), MMP1 (gene 4312)
protocol-text: BSK_BE3C_MMP1: BioMAP Diversity Plus: BE3C Assay for Matrix Metallopeptidase 1 (MMP1) Biomarker Activity (AID 2283024)
settings: primary human bronchial epithelial cells; actives raise or lower the signal
Active and inactive are the calls of the source. The calls were made as follows: active = hit-call score of the fitted dose curve at least 0.9, where 1 is the maximum; inactive = score below 0.9.
// allowed return values: class 1 (active), class 0 (inactive)

Worked set:
O=[Si]=O = class 0
CCCCc1nc2cccnc2n1Cc1ccc(-c2ccccc2-c2nnn[nH]2)cc1 = class 1
COC(=O)[C@H]1[C@H]2C[C@@H]3c4[nH]c5cc(OC)ccc5c4CCN3C[C@H]2C[C@@H](OC(=O)c2cc(OC)c(OC)c(OC)c2)[C@@H]1OC = class 0
CC(COCC(C)OC(=O)c1ccccc1)OC(=O)c1ccccc1 (configuration not stated) = class 0
CCCC[C@H]1CN(CC2CCOCC2)C(=O)OC12CCN(C1(C)CCN(C(=O)c3c(C)ncnc3C)CC1)CC2 = class 0

Note: attention shifts to another entry.
Query: recorded result category for `COC(=O)CCCC(=O)OC` in this test class 0
